The values you see were collected from PubChem BioAssay AID463173.

system: DeltatarO mutant; assay: growth inhibition of S. aureus wild type versus tarO mutant, primary screen, teichoic acid synthesis inhibitors, RN4220, OD600 (AID 463173); conditions: OD600, 18 h, stronger effect = lower value, concentration not given here
Among all 52,000 compounds or so, about 4,300 (8.3%) were called active. For the sample, actives were picked, then their nearest neighbours and some compounds at random.
quantity: survival (%)
Answer in %, number only, no unit symbol.

Quick note, survival for Cc1ccc2c(c1)C(Cc1nc3ccccc3c(=O)n1-c1ccc(Br)cc1)C(=O)N2 (stereo not given) landed at 73

Quick note, survival for Cc1cccc(-n2c(CC3C(=O)Nc4ccc(C)cc43)nc3ccccc3c2=O)c1 (stereo not given) landed at 34

Quick note, survival for "COc1cccc(NC(=O)Cn2cc(C(=O)c3ccccc3)c3ccccc32)c1" landed at 47

Quick note, survival for "COc1ccc(OC)c(NC(=O)Cn2cc(C(=O)c3ccccc3)c3ccccc32)c1" landed at 59

Quick note, survival for "O=c1c2ccccc2nc(/C=C\c2cccc(Br)c2)n1-c1ccc(O)cc1" landed at 100

----------
tested on: DeltatarO mutant; assay: growth inhibition of S. aureus wild type versus tarO mutant, primary screen, teichoic acid synthesis inhibitors, RN4220, OD600 (AID 463173); conditions: OD600, 18 h, stronger effect = lower value, concentration not given here
Hit rate of the full screen: of about 52,000 compounds, about 4,300 (8.3%) were called active. What follows is part of a selection rich in actives, with near analogues and random picks from the rest.
quantity: survival (%)
Answer in %, number only, no unit symbol.

# survival measured on DeltatarO mutant for item COc1ccc(OC)c(C(c2c(O)c3ccccc3oc2=O)c2c(C)n(C)n(-c3ccccc3)c2=O)c1 (stereo not given) = 56

# survival measured on DeltatarO mutant for item "Cc1ccc(NC(=O)Cn2cc(C(=O)c3ccccc3)c3ccccc32)cc1" = 122

# survival measured on DeltatarO mutant for item CC1CN2CCC3=C(CCCC3)C2(C)C1 (stereo not given) = 77

# survival measured on DeltatarO mutant for item "CCN(CC)C(=O)c1ccc(NC(=O)CCn2nc(-c3ccc(Cl)cc3)c3ccccc3c2=O)cc1" = 47

# survival measured on DeltatarO mutant for item "CCN(CC)C(=O)c1ccc(NC(=O)Cn2nc(-c3ccc(C)cc3)c3ccccc3c2=O)cc1" = 50

# survival measured on DeltatarO mutant for item "CNC(=O)Oc1c(Cl)cc(Cl)cc1Cl" = 96

# survival measured on DeltatarO mutant for item "COc1ccccc1NC(=O)N(Cc1ccc2c(c1)OCO2)C1CCN(Cc2ccccc2)CC1" = 88

# survival measured on DeltatarO mutant for item "Cc1ccc(-c2nn3c(=O)cc(CN4CCN(C(=O)COc5ccc(C)c(C)c5)CC4)nc3s2)cc1" = 81

# survival measured on DeltatarO mutant for item "COc1ccc(C=C2C(=O)NC(=S)NC2=O)cc1" = 96

# survival measured on DeltatarO mutant for item "O=C(COc1ccccc1Cl)N1CCN(CCc2ccccn2)CC1" = 110

----------
test system: DeltatarO mutant; experiment: growth inhibition of S. aureus wild type versus tarO mutant, primary screen, teichoic acid synthesis inhibitors, RN4220, OD600 (AID 463173); conditions: OD600, 18 h, stronger effect = lower value, concentration not given here
The whole screen tested about 52,000 compounds, of which about 4,300 (8.3%) were called active. Only a selection was taken, and actives are over-represented in it overall.
Please respond with yes when measured survival is strictly beneath 50%, and with no in all other cases.

API: query returns whether the molecule falls strictly under 50% in survival. Query: "Cc1ccc(C(C)C)c(OCC(=O)N2CCN(CCc3ccncc3)CC2)c1"
yes

API: query returns whether the molecule falls strictly under 50% in survival. Query: "CCNCC1(c2ccc(OC)c(OC)c2)CCCC1"
no

API: query returns whether the molecule falls strictly under 50% in survival. Query: "CCc1ccc(OCC(=O)N2CCN(CCc3ccncc3)CC2)cc1"
no

API: query returns whether the molecule falls strictly under 50% in survival. Query: "COc1ccc(OCC(=O)N2CCN(CCc3ccncc3)CC2)cc1"
no

API: query returns whether the molecule falls strictly under 50% in survival. Query: "O=C(COc1ccccc1Cl)N1CCN(CCc2ccncc2)CC1"
no

API: query returns whether the molecule falls strictly under 50% in survival. Query: "Cc1ccc(OCC(=O)N2CCN(CCc3ccncc3)CC2)cc1C"
no

API: query returns whether the molecule falls strictly under 50% in survival. Query: "CC(C)c1ccc(OCC(=O)N2CCN(CCc3ccncc3)CC2)cc1"
yes

API: query returns whether the molecule falls strictly under 50% in survival. Query: "CCN(CC)C(=O)c1ccc(NC(=O)c2ccc(-c3nn(C)c(=O)c4ccccc34)cc2)cc1"
no

API: query returns whether the molecule falls strictly under 50% in survival. Query: "CCOc1ccccc1NC(=O)c1cccn(Cc2ccccc2C)c1=O"
no

API: query returns whether the molecule falls strictly under 50% in survival. Query: "N#CSCC(=O)N1c2ccccc2CCc2ccccc21"
yes

----------
system: DeltatarO mutant; assay: growth inhibition of S. aureus wild type versus tarO mutant, primary screen, teichoic acid synthesis inhibitors, RN4220, OD600 (AID 463173); conditions: OD600, 18 h, stronger effect = lower value, concentration not given here
In all, about 52,000 compounds went through this assay and about 4,300 (8.3%) were called active. The full list was thinned out, with actives kept by preference.
Exercise: state measured survival for each of the compounds provided.
Answer in %, number only, no unit symbol.

Quick note, survival for "O=C(CCc1nc(C2=CCN(Cc3cccc(Cl)c3)CC2)no1)Nc1ccccc1F" landed at 81

Quick note, survival for "N#Cc1cc2c(nc1SCC(=O)Nc1ccc(C(F)(F)F)cc1)C1CCN2CC1" landed at 8

Quick note, survival for "COc1cccc(-n2c(/C=C\c3ccc(Cl)cc3)nc3ccccc3c2=O)c1" landed at 30

Quick note, survival for "N#Cc1cccc(NC(=O)CSc2nc3c(cc2C#N)N2CCC3CC2)c1" landed at 88

Quick note, survival for OC1CCNC2CCCCC12 (centres undefined) landed at 94

Quick note, survival for "Cc1ccc(OCC(=O)N2CCN(Cc3ccc(F)cc3)CC2)cc1" landed at 156

Quick note, survival for "CCSc1nnc(NC(=O)c2cccn(Cc3ccc(Cl)cc3)c2=O)s1" landed at 73

Quick note, survival for "COc1cccc(/C=C/c2nc3ccccc3c(=O)n2-c2ccc(Cl)cc2)c1OC" landed at 88

Quick note, survival for "COc1ccc(/C=C/c2nc3ccccc3c(=O)n2-c2ccc(C)cc2)cc1O" landed at 85

Quick note, survival for "N#Cc1cc2c(nc1SCC(=O)Nc1cccc(C(F)(F)F)c1)C1CCN2CC1" landed at 4

Quick note, survival for Cc1cccc(OC(C)C(=O)NCC2(N(C)C)CCCCC2)c1C (centres undefined) landed at 92

Quick note, survival for "COc1ccc(NC(=O)CN2C(=O)CN=C(c3ccccc3)c3ccccc32)c(OC)c1" landed at 99

Quick note, survival for "CC(=O)Nc1c(O)[nH]c(=S)[nH]c1=O" landed at 103

Quick note, survival for "CCOC(=O)c1ccc(NC(=O)CSc2nc3c(cc2C#N)N2CCC3CC2)cc1" landed at 76

Quick note, survival for "CN1CCN(C(=O)COc2cccc3ccccc23)CC1" landed at 98

Quick note, survival for C=C1N2CCC(CC2)C1(O)c1ccc(C)cc1 (centres undefined) landed at 44

Quick note, survival for "CC(=O)c1ccc(NC(=O)c2sc3nc4c(cc3c2N)N2CCC4CC2)cc1" landed at 98

Quick note, survival for "O=C(CN1C(=O)CN=C(c2ccccc2)c2ccccc21)Nc1cccc(C(F)(F)F)c1" landed at 57

Quick note, survival for CC(=O)NC1CC2CCC(C1)N2 (centres undefined) landed at 98

Quick note, survival for "Cc1cccc(CSc2nc3c(cc2C#N)CN(C)CC3)c1" landed at 101

Quick note, survival for "Cc1n[nH]c(C)c1CCN" landed at 80

Quick note, survival for "COc1ccc(NC(=O)CCc2nc(C3=CCN(Cc4cccc(C)c4)CC3)no2)c(OC)c1" landed at 91

Quick note, survival for "CC(C)Cc1nc2cccnc2n1C1CCNCC1" landed at 120

Quick note, survival for "N#Cc1cc2c(nc1SCC(=O)Nc1cccc(F)c1)C1CCN2CC1" landed at -4

----------
system: DeltatarO mutant; assay: growth inhibition of S. aureus wild type versus tarO mutant, primary screen, teichoic acid synthesis inhibitors, RN4220, OD600 (AID 463173); conditions: OD600, 18 h, stronger effect = lower value, concentration not given here
Screen size: about 52,000 compounds; about 4,300 (8.3%) were called active. The sample as a whole holds a higher share of actives than the screen did.
quantity: survival (%)
Answer in %, number only, no unit symbol.

Quick note, survival for "O=C1/C(=C\c2cc3c(cc2Cl)OCO3)N2CCC1CC2" landed at 87

Quick note, survival for "CC(C)(C)c1ccc(C(=O)Nc2ccc(Cl)cc2C(=O)c2ccccc2)cc1" landed at 6

Quick note, survival for "Cc1nc2ccccc2c(=O)n1-c1cccc(O)c1" landed at 96

Quick note, survival for "O=C1CC(=O)N(c2ccccc2)C(=O)N1c1ccccc1" landed at 90

Quick note, survival for "Cc1ccc(C(C)(C)C)c(OCC(=O)Nc2ccc(Cl)cc2C(=O)c2ccccc2)c1" landed at 66

Quick note, survival for "COC(=O)c1ccccc1NC(=O)c1cccn(Cc2cccc(Cl)c2)c1=O" landed at 73

Quick note, survival for COc1ccc(NC(=O)CN2C(=O)C(C)N=C(c3ccccc3)c3ccccc32)cc1OC (centres undefined) landed at 116

Quick note, survival for CN1C2CCC1CC(OC(=O)C1(c3ccccc3)CCCC1)C2 (centres undefined) landed at 116

Quick note, survival for "Cc1cccc(-n2c(/C=C/c3ccccc3O)nc3ccccc3c2=O)c1" landed at 0

Quick note, survival for "O=C1NC(=S)NC(=O)C1C1CCCCC1" landed at 74

Quick note, survival for "Cc1cccc(-n2c(-c3ccco3)nc3ccccc3c2=O)c1" landed at 94

Quick note, survival for COC1=CC23CCN(C)C(Cc4ccc(OC)c(O)c42)C3=CC1=O (centres undefined) landed at 84

Quick note, survival for O=C1CC(c2cccnc2)Nc2ccc3ccccc3c21 (centres undefined) landed at 86

Quick note, survival for CCOC(=O)C1=C(C)OC(N)=C(C#N)C12C(=O)N1c3c(cccc32)C(C)CC1(C)C (centres undefined) landed at 51

Quick note, survival for "COc1cccc(-n2c(/C=C/c3ccccc3O)nc3ccccc3c2=O)c1" landed at 4

Quick note, survival for "O=C1NC(=O)C(=Cc2ccc(N3CCOCC3)cc2)C(=O)N1" landed at 80

Quick note, survival for "CCCCc1nc2ccccc2c(=O)n1-c1cccc(OC)c1" landed at 119

Quick note, survival for Cc1ccccc1-n1nc(C)c2c1NC(=O)CSC2c1ccc(N(C)C)cc1 (centres undefined) landed at 43

Quick note, survival for "O=C(Nc1ccc(Br)cc1C(=O)c1ccccc1Cl)c1ccccc1F" landed at 52

Quick note, survival for "Cc1ccc(Cn2cccc(C(=O)Nc3cc([N+](=O)[O-])ccc3C)c2=O)cc1" landed at 82

Quick note, survival for CCc1ccc(-n2nc(C)c3c2NC(=O)CSC3c2ccc(C(=O)OC)cc2)cc1 (centres undefined) landed at 64

Quick note, survival for "CC(=O)N(C1=NCCCS1)c1ccc(C)cc1" landed at 99

Quick note, survival for "Cc1cccc(Cn2cccc(C(=O)Nc3nc4ccccc4s3)c2=O)c1" landed at 122

Quick note, survival for CC1=CC(=O)C2=C(C)CC(O)C3C(C)C(=O)OC3C12 (centres undefined) landed at 100

Quick note, survival for "CC(C)(C)c1ccc(OCC(=O)Nc2ccc(Cl)cc2C(=O)c2ccccc2)cc1" landed at 70

Quick note, survival for "O=C(Nc1ccc(Cl)cc1C(=O)c1ccccc1)c1cc(Cl)cc(Cl)c1" landed at 150

Quick note, survival for "CCc1ccccc1NC(=O)c1cccn(Cc2ccccc2F)c1=O" landed at 47

Quick note, survival for "O=C(Nc1ccc(Cl)cc1C(=O)c1ccccc1)c1ccccc1Br" landed at 24

Quick note, survival for "Cc1cccc(-n2c(/C=C/c3cccc4ccccc34)nc3ccccc3c2=O)c1" landed at 94

Quick note, survival for CC(C)n1cc(C(=O)N(C2CC2)C(C(=O)NC2CCCC2)c2ccccc2)cn1 (centres undefined) landed at 101

Quick note, survival for "CSc1ncc(C(=O)Nc2ccc(Cl)cc2C(=O)c2ccccc2)c(C)n1" landed at 98

Quick note, survival for "Cc1cccc(-n2c(/C=C/c3cn(C)c4ccccc34)nc3ccccc3c2=O)c1" landed at 21

Quick note, survival for "Cc1ccc(Cl)cc1NC(=O)N(Cc1ccc2c(c1)OCO2)C1CCN(Cc2ccccc2)CC1" landed at 55

Quick note, survival for "COc1ccc(-n2c(/C=C\c3ccccc3F)nc3ccccc3c2=O)cc1OC" landed at 89

Quick note, survival for "CCOC(=O)c1ccc(NC(=O)c2cccn(Cc3ccccc3F)c2=O)cc1" landed at 86

Quick note, survival for "Cc1cc(C)cc(OCC(=O)Nc2ccc(Cl)cc2C(=O)c2ccccc2)c1" landed at 82

Quick note, survival for "Cc1nnc(NC(=O)c2cccn(Cc3ccccc3F)c2=O)s1" landed at 94

Quick note, survival for "CN1CCN(c2csc3ccc(F)cc3c2=O)CC1" landed at 98

Quick note, survival for "O=C(COc1ccc(Br)cc1)Nc1ccc(Cl)cc1C(=O)c1ccccc1" landed at 83

Quick note, survival for "Cc1cccc(C)c1OCC(=O)Nc1ccc(Cl)cc1C(=O)c1ccccc1" landed at 17

Quick note, survival for CC(N)Cc1cn(Cc2ccccc2)c2ccccc12 (centres undefined) landed at 112

Quick note, survival for Cc1ccccc1-n1nc(C)c2c1NC(=O)CSC2c1ccc(Cl)cc1 (centres undefined) landed at 21

Quick note, survival for "Cc1ccc(-n2c(/C=C/c3cc(Br)cs3)nc3ccccc3c2=O)cc1" landed at 74

Quick note, survival for Cc1ccccc1-n1nc(C)c2c1NC(=O)CSC2c1ccccc1C(F)(F)F (centres undefined) landed at 39
